Reference source: patent US10173991B2

TARGET UNDER TEST: Endothelial lipase (EL) (Homo sapiens (Human), UniProt Q9Y5X9)
Sequence (Q9Y5X9 21-500): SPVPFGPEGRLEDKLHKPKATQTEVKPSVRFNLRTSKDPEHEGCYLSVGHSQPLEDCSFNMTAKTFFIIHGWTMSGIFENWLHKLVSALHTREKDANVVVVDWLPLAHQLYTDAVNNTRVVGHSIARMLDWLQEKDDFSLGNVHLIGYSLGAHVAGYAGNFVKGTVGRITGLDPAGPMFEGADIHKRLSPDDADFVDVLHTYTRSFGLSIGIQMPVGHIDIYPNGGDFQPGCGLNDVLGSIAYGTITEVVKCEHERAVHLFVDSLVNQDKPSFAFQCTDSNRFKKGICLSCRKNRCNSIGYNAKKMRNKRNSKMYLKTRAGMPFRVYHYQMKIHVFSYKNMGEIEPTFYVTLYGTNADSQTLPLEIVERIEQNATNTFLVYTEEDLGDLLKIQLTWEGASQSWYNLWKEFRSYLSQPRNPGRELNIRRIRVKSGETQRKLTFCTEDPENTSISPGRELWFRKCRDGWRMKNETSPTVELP
ASSAY EXPLANATION: Endothelial lipase (EL) enzymatic assay with fluorescent substrate A10070 in DMPG vesicles
Format: biochemical
PARAMETER MEASURED: IC50 (nM)

Answered cases to consult:
COCCS(=O)(=O)C(C(=O)NCC(=O)NC1(C)CC1)c1nc2cc(-c3ccc(F)nc3)ccc2s1 (centres unmarked)	14
COCCS(=O)(=O)C(C(=O)NCC(=O)NC1CC1)c1nc2cc(-c3ccc(F)cn3)ccc2s1 (centres unmarked)	274
COC1(C)CN(C(=O)c2ccc(-c3ccc4nc(C(C(=O)NCC(=O)NC5CC5)S(=O)(=O)c5ccccc5)sc4c3)cc2)C1 (centres unmarked)	5
COCCS(=O)(=O)C(C(=O)NCC(=O)NC1CC1)c1nc2cc(-c3ccc(NC(=O)OCc4ccccc4)cc3)c(F)cc2s1 (centres unmarked)	1
O=C(CNC(=O)C(c1nc2cc(F)c(-c3ccc(NC(=O)OCc4ccccc4)nc3)cc2s1)S(=O)(=O)CCN1CCOCC1)NC1CC1 (centres unmarked)	15
COCCS(=O)(=O)C(C(=O)NCC(=O)NC1CC1)c1nc2cc(F)c(-c3cccc(NC(=O)OCc4ccccc4)c3)cc2s1 (centres unmarked)	4

(a) COCCS(=O)(=O)C(C(=O)NCC(=O)NC1CC1)c1nc2cc(-c3cncc(Cl)c3)ccc2s1 (centres unmarked)
(b) CN(C)S(=O)(=O)C(C(=O)NCC(=O)NC1CC1)c1nc2c(F)cc(-c3cccc(-n4cccn4)c3)cc2s1 (centres unmarked)
## Input Determine, for a and b , which has the greater value of IC50. Select an item and report its label.
## Output b
(b: 130 nM, a: 5 nM)

(1) COCCS(=O)(=O)C(C(=O)NCC(=O)NC1CC1)c1nc2cc(-c3ccc(C(F)(F)F)nc3)ccc2s1 (centres unmarked)
(2) COCCS(=O)(=O)C(C(=O)NCC(=O)NCCOC(C)C)c1nc2cc(-c3ccn(C)c(=O)c3)c(F)cc2s1 (centres unmarked)
## Input From the items above, decide which of 1 and 2 has the lower IC50 reading. Select an item and report its label.
## Output 1

(A) COCCNC(=O)c1cccc(-c2cc3sc(C(C(=O)NCC(=O)NC4CC4)S(=O)(=O)C(C)C)nc3cc2C)c1 (centres unmarked)
(B) CC(C)OCCNC(=O)CNC(=O)C(c1nc2cc(-c3ccc(F)nc3)c(F)cc2s1)S(C)(=O)=O (centres unmarked)
(C) Cc1ncc(-c2ccc3nc(C(C(=O)NCC(=O)NC4CC4)S(=O)(=O)c4ccc(F)cc4)sc3c2)cn1 (centres unmarked)
## Input Hey, quick one: sort these by IC50, low to high? Show the ranking through the labels, in the order asked for.
## Output A, B, C

----------
TARGET UNDER TEST: Endothelial lipase (EL) (Homo sapiens (Human))
ASSAY EXPLANATION: Endothelial lipase (EL) enzymatic assay with fluorescent substrate A10070 in DMPG vesicles
Assay type: biochemical
MEASUREMENT CONTEXT: EL from conditioned media of HT-1080 cells; 30 min preincubation at 37° C.
PARAMETER MEASURED: IC50 (nM)

O=C(CNC(=O)C(c1nc2ccc(-c3ccc(F)nc3)cc2s1)S(=O)(=O)CCO)NC1CC1 (stereo not shown)	280

(A) CS(=O)(=O)C(C(=O)NCC(=O)NC1CC1)c1nc2cc(F)c(-c3ccc(NC(=O)OCc4ccccn4)cc3)cc2s1 (stereo not shown)
(B) COC(=O)Nc1ccccc1-c1cc2sc(C(C(=O)NCC(=O)NC3CC3)S(C)(=O)=O)nc2cc1F (stereo not shown)
(C) COCCS(=O)(=O)C(C(=O)NCC(=O)NC1CC1)c1nc2ccc(-c3ccc(C(=O)NCC(C)(C)COC)cc3)cc2s1 (stereo not shown)
(D) O=C(CNC(=O)C(c1nc2cc(F)c(-c3ccc(F)nc3)cc2s1)S(=O)(=O)CCN1CCOCC1)NC1CC1 (stereo not shown)
## Input Hey, quick one: sort these by IC50, low to high? Show the ranking through the labels, in the order asked for.
## Output A, C, D, B

(P) COCCS(=O)(=O)C(C(=O)NCC(=O)NC1CC1)c1nc2ccc(-c3ccnc(O)c3F)cc2s1 (stereo not shown)
(Q) O=C(CNC(=O)C(c1nc2ccc(-c3ccccc3)cc2s1)S(=O)(=O)c1ccccc1)NC1CC1 (stereo not shown)
## Input Determine, for P and Q , which has the greater value of IC50. Select an item and report its label.
## Output P
(P: 101 nM, Q: 6.6 nM)

----------
TARGET UNDER TEST: UniProt Q9Y5X9
ASSAY EXPLANATION: Endothelial lipase (EL) enzymatic assay with fluorescent substrate A10070 in DMPG vesicles
Type: biochemical
pIC50: −log10 of the molar value.
PARAMETER MEASURED: pIC50

CCOc1ncccc1-c1ccc2nc(C(C(=O)NCC(=O)NC3CC3)S(=O)(=O)CCOC)sc2c1 (centres unmarked)	7.48
CS(=O)(=O)C(C(=O)NCC(=O)NC1CC1)c1nc2ccc(-c3ccc(-n4ccnc4)cc3)cc2s1 (centres unmarked)	7.92
CC(C)S(=O)(=O)C(C(=O)NCC(=O)NC1CC1)c1nc2cc(-c3cccnc3F)c(F)cc2s1 (centres unmarked)	7.54
COCCS(=O)(=O)C(C(=O)NCC(=O)NC1CC1)c1nc2cc(Cl)c(-c3ccc(NC(=O)OC)cc3)cc2s1 (centres unmarked)	8.70
CC1(O)CN(C(=O)c2ccc(-c3cc4sc(C(C(=O)NCC(=O)NC5CC5)S(=O)(=O)CCC(F)(F)F)nc4cc3F)cc2)C1 (centres unmarked)	8.30

(I) O=C(CNC(=O)C(c1nc2cc(F)c(-c3ccc(NC(=O)OCc4ccccc4)cc3)cc2s1)S(=O)(=O)CC1CCCCC1)NC1CC1 (centres unmarked)
(II) COC(=O)Nc1ccc(-c2cc3sc(C(C(=O)NCC(=O)NC4CC4)S(C)(=O)=O)nc3cc2F)cc1F (centres unmarked)
(III) COCCS(=O)(=O)C(C(=O)NCC(=O)NC1CC1)c1nc2cc(F)c(-c3cccc(F)n3)cc2s1 (centres unmarked)
(IV) COCCS(=O)(=O)C(C(=O)NCC(=O)NC1CC1)c1nc2cc(-c3cnc(C)nc3)c(C)cc2s1 (centres unmarked)
## Input Hey, quick one: sort these by pIC50, low to high? Show the ranking through the labels, in the order asked for.
## Output III, IV, II, I
(III: 6.84, IV: 7.54, II: 7.96, I: 9.00)

----------
TARGET UNDER TEST: Endothelial lipase (EL) (Homo sapiens (Human))
ASSAY EXPLANATION: Endothelial lipase (EL) enzymatic assay with fluorescent substrate A10070 in DMPG vesicles
Format: biochemical
pIC50: −log10 of the molar value.
PARAMETER MEASURED: pIC50

COCCS(=O)(=O)C(C(=O)NCC(=O)NC1CC1)c1nc2ccc(-c3ccc4c(c3)C(=O)NC4)cc2s1 (stereo not shown)	7.01
CC(C)c1ccc(-c2cc3sc(C(C(=O)NCC(=O)NC4CC4)S(=O)(=O)C(C)C)nc3cc2F)cn1 (stereo not shown)	8.10
COC(=O)Nc1cccc(-c2cc3nc(C(C(=O)NCC(=O)NC4CC4)S(C)(=O)=O)sc3cc2F)c1 (stereo not shown)	8.30
COCCNC(=O)c1ccc(-c2cc(F)c3nc(C(C(=O)NCC(=O)NC4CC4)S(=O)(=O)CCOC)sc3c2)cc1 (stereo not shown)	7.55
COCCS(=O)(=O)C(C(=O)NCC(=O)NCCOC(C)C)c1nc2cc(-c3ccnn3C)c(F)cc2s1 (stereo not shown)	7.31

(A) COCCS(=O)(=O)C(C(=O)NCC(=O)NC1CC1)c1nc2ccc(-c3ccc(C(N)=O)cc3)cc2s1 (stereo not shown)
(B) O=C(CNC(=O)C(c1nc2ccc(-c3ccc(OCC4CC4)nc3)cc2s1)S(=O)(=O)Cc1ccc(F)cc1)NC1CC1 (stereo not shown)
## Input Determine, for A and B , which has the greater value of pIC50. Select an item and report its label.
## Output B
(B: 8.10, A: 7.34)

----------
TARGET UNDER TEST: UniProt Q9Y5X9
ASSAY EXPLANATION: Endothelial lipase (EL) enzymatic assay with fluorescent substrate A10070 in DMPG vesicles
Assay type: biochemical
pIC50: −log10 of the molar value.
PARAMETER MEASURED: pIC50

COCCS(=O)(=O)C(C(=O)NCC(=O)NC1CC1)c1nc2ccc(-c3ccnc(OC)c3F)cc2s1 (stereo not drawn) [Example 343]	7.32

(A) Cn1ncc2ccc(-c3cc4sc(C(C(=O)NCC(=O)NC5CC5)S(C)(=O)=O)nc4cc3F)cc21 (stereo not drawn) [Example 196]
(B) O=C(CNC(=O)C(c1nc2cc(-c3ccc(F)nc3)ccc2s1)S(=O)(=O)CCC(F)(F)F)NC1CC1 (stereo not drawn) [Example 12]
(C) CC(=O)NCc1ccc(-c2ccc3sc(C(C(=O)NCC(=O)NC4CC4)S(=O)(=O)c4ccccc4)nc3c2)cc1 (stereo not drawn) [Example 436]
(D) COCCS(=O)(=O)C(C(=O)NCC(=O)NC1CC1)c1nc2ccc(-c3cccnc3Cl)cc2s1 (stereo not drawn) [Example 297]
(E) COCCS(=O)(=O)C(C(=O)NCC(=O)NC1CC1)c1nc2ccc(-c3ccnn3C)cc2s1 (stereo not drawn) [Example 313]
## Input # rank_down: sort by pIC50, max first Show the ranking through the labels, in the order asked for.
## Output A, B, C, D, E
(A: 9.00, B: 8.15, C: 7.89, D: 7.07, E: 6.50)
